Tested on: Staphylococcus epidermidis
experimentNotes: Antibacterial activity against methicillin-susceptible, inducible MLS-resistant Staphylococcus epidermidis E1 by broth microdilution method
Format: functional
recordedMetric: MIC (µg/mL)
Just the number in µg/mL, nothing appended.

Input line: // MIC lookup, key: CC[C@H]1OC(=O)[C@H](C)[C@@H](O/C=C\Cc2cncnc2)[C@H](C)[C@@H](O[C@@H]2O[C@H](C)C[C@H](N(C)C)[C@H]2O)[C@](C)(OC)C[C@@H](C)/C(=N\O)[C@H](C)[C@H]2OC(=O)O[C@@]21C
Output line: 0.25

---

Tested on: Streptococcus pyogenes
experimentNotes: Antibacterial activity against constitutive MLS-resistant Streptococcus pyogenes A 2 by broth microdilution method
Type: functional
Would you mind telling me the reported MIC of each entry?

Input line: // MIC lookup, key: CC[C@H]1OC(=O)[C@H](C)[C@@H](OCCCc2cncnc2)[C@H](C)[C@@H](O[C@@H]2O[C@H](C)C[C@H](N(C)C)[C@H]2O)[C@](C)(OC)C[C@@H](C)/C(=N\O)[C@H](C)[C@@H](O)[C@]1(C)O
Output line: > 256 µg/mL

Input line: // MIC lookup, key: CC[C@H]1OC(=O)[C@H](C)[C@@H](OCC#Cc2cncnc2)[C@H](C)[C@@H](O[C@@H]2O[C@H](C)C[C@H](N(C)C)[C@H]2O)[C@](C)(OC)C[C@@H](C)/C(=N\O)[C@H](C)[C@@H](O)[C@]1(C)O
Output line: > 256 µg/mL

Input line: // MIC lookup, key: CC[C@H]1OC(=O)[C@H](C)[C@@H](OC/C=C/c2cncnc2)[C@H](C)[C@@H](O[C@@H]2O[C@H](C)C[C@H](N(C)C)[C@H]2O)[C@](C)(OC)C[C@@H](C)/C(=N\OCc2c(C)cc(C)cc2C)[C@H](C)[C@H]2OC(=O)O[C@@]21C
Output line: 32 µg/mL

Input line: // MIC lookup, key: CC[C@H]1OC(=O)[C@H](C)[C@@H](OCCCc2cccnc2)[C@H](C)[C@@H](O[C@@H]2O[C@H](C)C[C@H](N(C)C)[C@H]2O)[C@](C)(OC)C[C@@H](C)/C(=N\OCc2ccccc2Cl)[C@H](C)[C@H]2OC(=O)O[C@@]21C
Output line: 32 µg/mL

Input line: // MIC lookup, key: CC[C@H]1OC(=O)[C@H](C)[C@@H](OC/C=C/c2cncnc2)[C@H](C)[C@@H](O[C@@H]2O[C@H](C)C[C@H](N(C)C)[C@H]2O)[C@](C)(OC)C[C@@H](C)/C(=N\O)[C@H](C)[C@H]2OC(=O)O[C@@]21C
Output line: > 256 µg/mL

Input line: // MIC lookup, key: CC[C@H]1OC(=O)[C@H](C)[C@@H](OC/C=C/c2cncnc2)[C@H](C)[C@@H](O[C@@H]2O[C@H](C)C[C@H](N(C)C)[C@H]2O)[C@](C)(OC)C[C@@H](C)/C(=N\O)[C@H](C)[C@@H](O)[C@]1(C)O
Output line: > 256 µg/mL

Input line: // MIC lookup, key: CC[C@H]1OC(=O)[C@H](C)[C@@H](O/C=C\Cc2cncnc2)[C@H](C)[C@@H](O[C@@H]2O[C@H](C)C[C@H](N(C)C)[C@H]2O)[C@](C)(OC)C[C@@H](C)C(=O)[C@H](C)[C@@H](O)[C@]1(C)O
Output line: > 256 µg/mL

Input line: // MIC lookup, key: CC[C@H]1OC(=O)[C@H](C)[C@@H](OCCCc2cncnc2)[C@H](C)[C@@H](O[C@@H]2O[C@H](C)C[C@H](N(C)C)[C@H]2O)[C@](C)(OC)C[C@@H](C)/C(=N\OCc2ccccc2Cl)[C@H](C)[C@H]2OC(=O)O[C@@]21C
Output line: 32 µg/mL
